Biological target: IRAK4 (Homo sapiens)
Sequence (Q9NWZ3 1-460): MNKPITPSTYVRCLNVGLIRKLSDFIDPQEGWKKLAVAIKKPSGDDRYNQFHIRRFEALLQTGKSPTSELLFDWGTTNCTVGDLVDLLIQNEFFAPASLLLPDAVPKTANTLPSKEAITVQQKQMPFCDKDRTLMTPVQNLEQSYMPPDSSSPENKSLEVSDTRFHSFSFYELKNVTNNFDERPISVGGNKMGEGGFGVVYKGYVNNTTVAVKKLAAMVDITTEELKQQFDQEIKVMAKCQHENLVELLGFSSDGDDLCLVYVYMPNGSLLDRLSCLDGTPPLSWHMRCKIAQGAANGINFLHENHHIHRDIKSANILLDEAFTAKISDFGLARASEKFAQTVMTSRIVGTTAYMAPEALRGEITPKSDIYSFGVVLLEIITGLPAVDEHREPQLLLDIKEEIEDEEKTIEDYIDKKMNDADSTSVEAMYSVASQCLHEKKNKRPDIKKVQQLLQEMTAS
Assay: OCI-LY-10 degradation assay (western blot, % IRAK4 degraded after 4 hours)
Type: cell-based
Design: endogenous in cells; host or cells: OCI-LY10
Conditions: OCI-LY10 cells, 4 hours, 0.01 uM compound
resultType: OCI-LY10 % IRAK4 Degradation (0.01 uM)

>>> endpointvalue("NC(=O)c1nn(-c2ccc(CNCCOCCOCCOCCOCCCc3cccc4c3C(=O)N(C3CCC(=O)NC3=O)C4=O)cc2)cc1NC(=O)c1coc(-c2ccnc(NCC(F)(F)F)c2)n1 (stereo not drawn)")
"C (<20% degradation)"
>>> endpointvalue("CN(CCCCCOCCCc1cccc2c1C(=O)N(C1CCC(=O)NC1=O)C2=O)Cc1ccc(-n2cc(NC(=O)c3coc(-c4ccnc(NCC5CC5)c4)n3)c(C(N)=O)n2)cc1 (stereo not drawn)")
"C (<20% degradation)"
>>> endpointvalue("O=C1CCC(N2C(=O)c3ccc(NC4CCN(CCOCCOCCNC(=O)c5ccc(-n6cc(NC(=O)c7coc(-c8ccnc(NCC9CC9)c8)n7)c(C(F)F)n6)cc5)CC4)cc3C2=O)C(=O)N1 (stereo not drawn)")
"C (<20% degradation)"

* * *

Test: Pharmacokinetics in Sprague Dawley rats (plasma and brain concentrations, PK parameters)
Type: in vivo
Details: Sprague Dawley, rat, brain homogenate, iv, 3 mg/kg, Rat (Sprague Dawley) iv 3 mg/kg (IVB); brain homogenate 1:2 in PBS; 4 h; Group 1, Group 2; read-out: brain Detected Conc.
resultType: concentration at 4 h

>>> endpointvalue("O=C1CCC(N2C(=O)c3cccc(NCCOCCOCCNCc4ccc(-n5cc(NC(=O)c6coc(-c7ccnc(NCC8CC8)c7)n6)c(C(F)F)n5)cc4)c3C2=O)C(=O)N1 (stereo not shown)")
"14.2 ng/mL"

* * *

Assay: Pharmacokinetics in CD-1 mice (plasma concentrations, PK parameters)
Format: in vivo
Settings: CD-1, mouse, plasma, sc, 30 mg/kg, mouse (CD1) sc 30 mg/kg; 6 h; individual Mouse 7-9; read-out: Concentration
resultType: concentration at 6 h (ng/mL)

>>> endpointvalue("NC(=O)c1nn(-c2ccc(C(=O)NCCCCCNCCNc3cccc4c3C(=O)N(C3CCC(=O)NC3=O)C4=O)cc2)cc1NC(=O)c1coc(-c2ccnc(NCC(F)(F)F)c2)n1 (stereo not shown)")
16

* * *

Test: Pharmacokinetics in Sprague Dawley rats (plasma and brain concentrations, PK parameters)
Type: in vivo
Settings: Sprague-Dawley, rat, plasma, iv, 3 mg/kg, Sprague Dawley rat, iv 3 mg/kg, plasma, 4 h, Rat 1; read-out: Concentration Rat 1
Description: Pharmacokinetics for I-127, I-172 and I-210 were determined in Sprague Dawley rats or CD-1 mice by dosing intravenous (IV), subcutaneous (SC) or per oral (PO) using facility SOPs and sampling plasma at required time points. […] Compounds were extracted from plasma, injected on reverse phase HPLC, eluted with a gradient from 5% to 95% acetonitrile in water and quantified by mass spectrometry with internal standard. […]
resultType: concentration at 4 h

>>> endpointvalue("O=C1CCC(N2C(=O)c3cccc(NCCOCCOCCNCc4ccc(-n5cc(NC(=O)c6coc(-c7ccnc(NCC8CC8)c7)n6)c(C(F)F)n5)cc4)c3C2=O)C(=O)N1 (stereo not shown)")
"86 ng/mL"

* * *

Target: IRAK4 (Homo sapiens)
Assay: OCI-LY-10 degradation assay (western blot, % IRAK4 degraded after 4 hours)
Assay type: cell-based
Design: endogenous in cells; host or cells: OCI-LY10
Conditions: OCI-LY10 cells, 4 hours, 0.1 uM compound
resultType: OCI-LY10 % IRAK4 Degradation (0.1 uM)

>>> endpointvalue("CN(CCCc1cccc2c1C(=O)N(C1CCC(=O)NC1=O)C2=O)Cc1ccc(-n2cc(NC(=O)c3coc(-c4ccncc4)n3)c(C(N)=O)n2)cc1 (centres unmarked)")
"C (<20% degradation)"
>>> endpointvalue("O=C1CCC(N2C(=O)c3cccc(NCCOCCN4CCO[C@H](CNCc5ccc(-n6cc(NC(=O)c7coc(-c8ccnc(NCC9CC9)c8)n7)c(C(F)F)n6)cc5)C4)c3C2=O)C(=O)N1 (some centres unmarked) [I-329]")
"A (>50% degradation)"
>>> endpointvalue("CN(CCCc1ccc2c(c1)C(=O)N(C1CCC(=O)NC1=O)C2=O)Cc1ccc(-n2cc(NC(=O)c3coc(-c4ccnc(NCC5CC5)c4)n3)c(C(F)F)n2)cc1 (centres unmarked)")
"B (>20-50% degradation)"
>>> endpointvalue("CN(CCOCCCc1ccc2c(c1)C(=O)N(C1CCC(=O)NC1=O)C2=O)Cc1ccc(-n2cc(NC(=O)c3coc(-c4ccnc(NCC5CC5)c4)n3)c(C(F)F)n2)cc1 (centres unmarked)")
"A (>50% degradation)"
>>> endpointvalue("NC(=O)c1nn(-c2ccc(CNCCOCCOCCCc3cccc4c3C(=O)N(C3CCC(=O)NC3=O)C4=O)cc2)cc1NC(=O)c1coc(-c2ccnc(NCC(F)(F)F)c2)n1 (centres unmarked)")
"A (>50% degradation)"
>>> endpointvalue("O=C1CCC(N2C(=O)c3ccc(CCCNCc4ccc(-n5cc(NC(=O)c6coc(-c7ccncc7)n6)c(C(F)F)n5)cc4)cc3C2=O)C(=O)N1 (centres unmarked)")
"C (<20% degradation)"
>>> endpointvalue("NC(=O)c1nn(-c2ccc(C(=O)NCC3CCCCN3CCOCCNc3cccc4c3C(=O)N(C3CCC(=O)NC3=O)C4=O)cc2)cc1NC(=O)c1coc(-c2ccnc(NCC(F)(F)F)c2)n1 (centres unmarked)")
"A (>50% degradation)"
>>> endpointvalue("NC(=O)c1nn(CCNCCOCCOCCNc2cccc3c2C(=O)N(C2CCC(=O)NC2=O)C3=O)cc1NC(=O)c1coc(-c2ccnc(NCC3CC3)c2)n1 (centres unmarked)")
"C (<20% degradation)"
>>> endpointvalue("NC(=O)c1nn(-c2ccc(CNCCOCCOCCOCCOCC#Cc3cccc4c3C(=O)N(C3CCC(=O)NC3=O)C4=O)cc2)cc1NC(=O)c1coc(-c2ccnc(NCC(F)(F)F)c2)n1 (centres unmarked)")
"A (>50% degradation)"
>>> endpointvalue("O=C1CCC(N2C(=O)c3cccc(CCCN4CCC(n5cc(NC(=O)c6coc(-c7ccnc(NCC8CC8)c7)n6)c(C(F)F)n5)CC4)c3C2=O)C(=O)N1 (centres unmarked)")
"C (<20% degradation)"
>>> endpointvalue("O=C1CCC(N2C(=O)c3ccc(N4CCN(CCOCCOCCOCCNC(=O)c5ccc(-n6cc(NC(=O)c7coc(-c8ccnc(NCC9CC9)c8)n7)c(C(F)F)n6)cc5)CC4)cc3C2=O)C(=O)N1 (centres unmarked)")
"B (>20-50% degradation)"

* * *

Assay: Pharmacokinetics in Sprague Dawley rats (plasma and brain concentrations, PK parameters)
Type: in vivo
Details: Sprague Dawley, rat, brain homogenate, iv, 3 mg/kg, Rat (Sprague Dawley) iv 3 mg/kg (IVB); brain homogenate 1:2 in PBS; 1 h; Group 1, Group 2; read-out: brain Detected Conc.
resultType: concentration at 1 h (ng/mL)

>>> endpointvalue("O=C1CCC(N2C(=O)c3cccc(NCCOCCOCCNCc4ccc(-n5cc(NC(=O)c6coc(-c7ccnc(NCC8CC8)c7)n6)c(C(F)F)n5)cc4)c3C2=O)C(=O)N1 (stereo not shown)")
13.3

* * *

Target: IRAK4 (Homo sapiens)
Sequence (Q9NWZ3 1-460): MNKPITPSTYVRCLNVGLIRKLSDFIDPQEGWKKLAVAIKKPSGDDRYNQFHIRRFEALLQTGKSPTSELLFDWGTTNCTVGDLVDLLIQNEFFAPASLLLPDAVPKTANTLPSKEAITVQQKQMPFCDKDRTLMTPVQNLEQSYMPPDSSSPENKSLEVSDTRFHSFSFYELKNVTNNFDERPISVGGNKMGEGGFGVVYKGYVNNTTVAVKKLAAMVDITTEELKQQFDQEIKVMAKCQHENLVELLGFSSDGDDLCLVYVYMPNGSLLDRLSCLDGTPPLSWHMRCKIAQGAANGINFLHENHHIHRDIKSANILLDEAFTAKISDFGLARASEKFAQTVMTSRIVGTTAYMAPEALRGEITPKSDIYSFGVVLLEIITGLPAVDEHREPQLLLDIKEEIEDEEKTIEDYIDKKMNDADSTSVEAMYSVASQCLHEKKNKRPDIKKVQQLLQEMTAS
Test: OCI-LY-10 degradation assay (western blot, % IRAK4 degraded after 4 hours)
Format: cell-based
Set-up: endogenous in cells; host or cells: OCI-LY10
Details: OCI-LY10 cells, 4 hours, 0.1 uM compound
resultType: OCI-LY10 % IRAK4 Degradation (0.1 uM)

>>> endpointvalue("O=C1CCC(N2C(=O)c3ccc(N4CCN(CCOCCOCCNC(=O)c5ccc(-n6cc(NC(=O)c7coc(-c8ccnc(NCC9CC9)c8)n7)c(C(F)F)n6)cc5)CC4)cc3C2=O)C(=O)N1 (centres unmarked)")
"B (>20-50% degradation)"
>>> endpointvalue("NC(=O)c1nn(CCCCCCOCCOCCNc2cccc3c2C(=O)N(C2CCC(=O)NC2=O)C3=O)cc1NC(=O)c1coc(-c2ccnc(NCC3CC3)c2)n1 (centres unmarked)")
"C (<20% degradation)"
>>> endpointvalue("CN(CCOCCOCCCc1ccc2c(c1)C(=O)N(C1CCC(=O)NC1=O)C2=O)Cc1ccc(-n2cc(NC(=O)c3coc(-c4ccncc4)n3)c(C(N)=O)n2)cc1 (centres unmarked)")
"A (>50% degradation)"
>>> endpointvalue("O=C1CCC(N2C(=O)c3cccc(NCCOCCNC(=O)c4ccc(-n5cc(NC(=O)c6coc(-c7ccnc(NCC8CC8)c7)n6)c(C(F)F)n5)cc4)c3C2=O)C(=O)N1 (centres unmarked)")
"B (>20-50% degradation)"
>>> endpointvalue("O=C1CCC(N2C(=O)c3ccc(NCCOCCN4CCN(CCOCCNCc5ccc(-n6cc(NC(=O)c7coc(-c8ccnc(NCC9CC9)c8)n7)c(C(F)F)n6)cc5)CC4)cc3C2=O)C(=O)N1 (centres unmarked)")
"B (>20-50% degradation)"
>>> endpointvalue("CN(CCCCCCCCCc1cccc2c1C(=O)N(C1CCC(=O)NC1=O)C2=O)Cc1ccc(-n2cc(NC(=O)c3coc(-c4ccnc(NCC5CC5)c4)n3)c(C(N)=O)n2)cc1 (centres unmarked)")
"B (>20-50% degradation)"
>>> endpointvalue("NC(=O)c1nn(-c2ccc(CNCCOCCOCCN3CCC(Nc4cccc5c4C(=O)N(C4CCC(=O)NC4=O)C5=O)CC3)cc2)cc1NC(=O)c1coc(-c2ccnc(NCC3CC3)c2)n1 (centres unmarked)")
"B (>20-50% degradation)"
>>> endpointvalue("CN(CCOCCCc1cccc2c1C(=O)N(C1CCC(=O)NC1=O)C2=O)Cc1ccc(-n2cc(NC(=O)c3coc(-c4ccnc(NCC5CC5)c4)n3)c(C(F)F)n2)cc1 (centres unmarked)")
"B (>20-50% degradation)"
>>> endpointvalue("O=C1CCC(N2C(=O)c3cccc(NCc4cn(CCOCCOCCNCc5ccc(-n6cc(NC(=O)c7coc(-c8ccnc(NCC9CC9)c8)n7)c(C(F)F)n6)cc5)nn4)c3C2=O)C(=O)N1 (centres unmarked)")
"A (>50% degradation)"
>>> endpointvalue("CN(CCCc1ccc2c(c1)C(=O)N(C1CCC(=O)NC1=O)C2=O)Cc1ccc(-n2cc(NC(=O)c3coc(-c4ccncc4)n3)c(C(N)=O)n2)cc1 (centres unmarked)")
"B (>20-50% degradation)"
>>> endpointvalue("NC(=O)c1nn(-c2ccc(CNCCCc3cccc4c3C(=O)N(C3CCC(=O)NC3=O)C4=O)cc2)cc1NC(=O)c1coc(-c2ccncc2)n1 (centres unmarked)")
"C (<20% degradation)"
